All values here come from ChEMBL document CHEMBL2094260.

- Tested on: Mycobacterium tuberculosis
- procedure-summary: MMV: Screen against Mtb, single point, non replicating, at 25uM
- Type: functional
We use 10% as the dividing line for inhibition at 25 µM: on or above the line is 1.0, below is 0.0.

Is reported inhibition at 25 µM greater than or equal to 10% here: Oc1ccc(Br)cc1CN1CCN(Cc2cccc(F)c2)CC1
0.0

Exam item: decide whether the reported inhibition at 25 µM for COc1cc(C(=O)ON=C(N)Cc2cccc3ccccc23)cc(OC)c1OC is at least 10%.
1.0

Quick check: does COc1ccc2c(c1)OC(O)(C(F)(F)C(F)(F)F)CC2=O (centres undefined) have inhibition at 25 µM greater than or equal to 10%?
1.0

###

- Tested on: Mycobacterium tuberculosis
- procedure-summary: MMV: CRC and MIC90 against Mtb (replicating)
- Format: functional
Define the label as 1 when MIC90 is strictly less than 20 µM and as -1 in all remaining cases.

Example entries begin here.
1) CCCCCn1c(=N)n(CC(O)COc2cccc(C)c2)c2ccccc21 (stereo not given) :: -1
2) Cc1ccc2cc3c(N)c4c(C)ccc(C)c4nc3nc2c1 :: 1
3) Clc1cc(Br)ccc1-c1ccc(CNCC2CCNCC2)o1 :: -1
4) CCN(CC)CCCNc1nc(-c2ccc(Cl)cc2)nc2ccccc12 :: -1
5) Cc1cc(NCCN2CCCCC2)c2ccc3ccccc3c2n1 :: -1

Find out if reported MIC90 for COc1ccc(Nc2nc(NCc3ccccc3)c3ccccc3n2)cc1 is less than 20 µM
1

For this compound, is MIC90 lower than 20 µM? Cc1ccc2c(C)nc(Nc3nc(C)cc(-c4ccccc4)n3)nc2c1
1

Given the entry CC(C)(C)CC(C)(C)NCC(O)COc1ccc2c(c1)CCC2 (stereo not given) , would its reported MIC90 be below 20 µM?
-1

Say whether its MIC90 is strictly beneath 20 µM. Entry: Cc1nc2ccccc2c(O)c1CC=C(Cl)Cl
1

###

- Test system: Mycobacterium tuberculosis
- procedure-summary: MMV: CRC and MIC90 against Mtb (replicating)
- Type: functional
MIC90 less than 20 µM is Satisfied; MIC90 greater than or equal to 20 µM is Not satisfied.

1) COc1cccc(Nc2nc(NCCO)c3ccccc3n2)c1 :: Not satisfied

Item CCOc1ccc2nc(C)cc(Nc3ccc(N(C)C)cc3)c2c1 : MIC90 beneath 20 µM, strictly?
Not satisfied

Please indicate whether the reported MIC90 of COc1ccc(C2c3ccc4ccccc4c3Oc3ncn(CCCN(C)C)c(=N)c32)cc1 (configuration not stated) is strictly below 20 µM.
Satisfied

hey, is MIC90 for N=c1n(CCN2CCCCC2)c2ccccc2n1CC(=O)c1ccc(Cl)c(Cl)c1 lower than 20 µM or not?
Not satisfied

Given COc1ccc(-c2cc(=O)oc3c4c(ccc23)OCN(Cc2ccc(F)cc2)C4)cc1 , is recorded MIC90 strictly lower than 20 µM?
Not satisfied

Is MIC90 of COc1ccc(Nc2cc(C)nc(NCc3ccccc3)n2)cc1 strictly below 20 µM?
Satisfied

###

- Test system: Mycobacterium tuberculosis
- procedure-summary: MMV: Screen against Mtb, single point, non replicating, at 25uM
- Type: functional
The label depends only on inhibition at 25 µM: satisfied if it is at least 20%, not satisfied if it is smaller.

1. CCN(CC)CCNc1ncnc2c1[nH]c1ccc(Br)cc12 :: not satisfied
2. O=C(Nc1ccccc1O)c1ccc(Oc2cccc(C(=O)Nc3ccccc3O)c2)cc1 :: not satisfied

Does the compound Cc1ccc(-c2cc3nc4c(c(O)n3n2)CCCC4)cc1 have recorded inhibition at 25 µM that is 20% or more?
satisfied

Given Cc1ccc(Nc2nc(-c3ccccn3)cs2)cc1 , state whether its inhibition at 25 µM is at least 20%.
satisfied

In plain terms: is recorded inhibition at 25 µM at least 20% for O=C(Nc1cccc(C(F)(F)F)c1)c1cc(Cl)ccc1O ?
satisfied

Hi, just wondering whether O=C(CCl)NCCOc1ccc(Cl)cc1Cl shows inhibition at 25 µM of 20% or higher.
satisfied
